Recorded values, source patent US9408850B2.

TARGET_SYSTEM: FLT3 cytoplasmic domain (GST fused protein) (Homo sapiens (Human))
Sequence (P36888 564-993): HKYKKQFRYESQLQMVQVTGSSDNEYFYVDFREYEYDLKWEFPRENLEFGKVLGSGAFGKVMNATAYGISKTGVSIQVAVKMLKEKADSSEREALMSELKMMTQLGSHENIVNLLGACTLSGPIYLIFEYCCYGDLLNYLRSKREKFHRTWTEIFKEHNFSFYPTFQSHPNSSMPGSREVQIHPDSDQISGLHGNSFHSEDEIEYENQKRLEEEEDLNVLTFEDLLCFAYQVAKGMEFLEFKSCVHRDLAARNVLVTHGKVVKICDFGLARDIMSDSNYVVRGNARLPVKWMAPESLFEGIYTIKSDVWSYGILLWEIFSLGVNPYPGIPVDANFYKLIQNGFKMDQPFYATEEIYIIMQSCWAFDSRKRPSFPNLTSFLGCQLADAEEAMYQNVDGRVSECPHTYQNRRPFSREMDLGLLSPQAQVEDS
EXPERIMENTAL_PROTOCOL: Biochemical assay for inhibitors of FLT3 kinase activity
MEASUREMENT_SETUP: 2 nM pre activated enzyme, 254 microM ATP, 60 minutes at r.t.
READOUT_KIND: IC50 (µM)

MOLECULE	UNIT_NAME	IC50
CN(C)c1ccc(C(=O)Nc2n[nH]c3cc(OCc4ccccc4)ccc23)cc1 [Ref. Compound, reference compound]	µM	3.18
CN1CCN(c2ccc(C(=O)Nc3n[nH]c4cc(OCCOCc5ccccc5F)ccc34)cc2)CC1	µM	0.166

[1] CN1CCN(c2ccc(C(=O)Nc3n[nH]c4cc(OC5CCN(Cc6ccccc6)CC5)ccc34)cc2)CC1
[2] CC(C)(C)OC(=O)N1CCN(c2ccc(C(=O)Nc3n[nH]c4cc(OCCOCc5ccccc5)ccc34)cc2)CC1
Q: Lab notebook, comparison: 1 versus 2 , higher IC50 goes to which? When you have decided, please share the label of that item.
Ans: 2
(2: 0.414 µM, 1: 0.248 µM)

----------
TARGET_SYSTEM: KIT cytoplasmic domain (GST fused protein) (Homo sapiens (Human), UniProt P10721)
Sequence (P10721 544-976): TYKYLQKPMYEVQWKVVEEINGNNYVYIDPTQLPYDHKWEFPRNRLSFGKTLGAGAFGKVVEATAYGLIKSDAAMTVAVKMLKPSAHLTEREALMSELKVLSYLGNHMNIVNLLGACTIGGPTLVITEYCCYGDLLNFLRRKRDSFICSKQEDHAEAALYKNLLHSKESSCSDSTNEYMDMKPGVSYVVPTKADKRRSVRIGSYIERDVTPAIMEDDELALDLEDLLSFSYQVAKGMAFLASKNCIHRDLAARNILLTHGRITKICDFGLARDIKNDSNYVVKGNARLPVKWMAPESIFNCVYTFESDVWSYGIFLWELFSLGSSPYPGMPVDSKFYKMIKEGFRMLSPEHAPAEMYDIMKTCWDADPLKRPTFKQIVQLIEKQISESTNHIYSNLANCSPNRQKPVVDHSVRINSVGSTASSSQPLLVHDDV
EXPERIMENTAL_PROTOCOL: Biochemical assay for inhibitors of KIT kinase activity
MEASUREMENT_SETUP: 4 nM pre activated enzyme, 4.4 microM ATP, 60 minutes at r.t.
pIC50: −log10 of the molar value. Structures can show the parent of a compound that is named as a salt.
READOUT_KIND: pIC50

[I] CN1CCC(Nc2ccc(C(=O)Nc3n[nH]c4cc(OCCOCc5ccccc5)ccc34)cc2)CC1
[II] CN1CCN(c2ccc(C(=O)Nc3n[nH]c4cc(OC/C=C/c5ccccc5)ccc34)cc2)CC1
[III] CN1CCN(c2ccc(C(=O)Nc3n[nH]c4cc(OCC#Cc5ccccc5)ccc34)cc2)CC1
[IV] O=C(Nc1n[nH]c2cc(OCCOCc3ccccc3)ccc12)c1ccc(NCCN2CCOCC2)cc1 [Cpd. 25, hydrochloride]
[V] CN1CCN(c2ccc(C(=O)Nc3n[nH]c4cc(OCc5ccccc5)ccc34)cc2)CC1
Q: Put the compounds in ascending order of pIC50. Rank the items, then write their labels in that order.
Ans: V, III, II, IV, I
(V: 5.55, III: 5.82, II: 6.28, IV: 6.71, I: 7.21)

----------
TARGET_SYSTEM: KIT cytoplasmic domain (GST fused protein) (Homo sapiens (Human), UniProt P10721)
EXPERIMENTAL_PROTOCOL: Biochemical assay for inhibitors of KIT kinase activity
MEASUREMENT_SETUP: 4 nM pre activated enzyme, 4.4 microM ATP, 60 minutes at r.t.
pIC50: −log10 of the molar value. Structures can show the parent of a compound that is named as a salt.
READOUT_KIND: pIC50

MOLECULE	READOUT_KIND	OBS_VALUE
CN1CCN(c2ccc(C(=O)Nc3n[nH]c4cc(OCCOCc5ccccc5)ccc34)cc2)CC1	pIC50	6.95
O=C(Nc1n[nH]c2cc(OCCOCc3ccccc3)ccc12)c1ccc(N2CCNCC2)cc1	pIC50	7.28
CN1CCC(CNc2ccc(C(=O)Nc3n[nH]c4cc(OCCOCc5ccccc5)ccc34)cc2)CC1	pIC50	7.04

[P] C[N+]1([O-])CCN(c2ccc(C(=O)Nc3n[nH]c4cc(OCCOCc5ccc(C(F)(F)F)cc5)ccc34)cc2)CC1 [Cpd. 42, hydrochloride]
[Q] C[N+]1([O-])CCN(c2ccc(C(=O)Nc3n[nH]c4cc(OCCOCc5ccccc5)ccc34)cc2)CC1
Q: Compare pIC50: is it lower for P or for Q ? When you have decided, please share the label of that item.
Ans: Q
